# Test system: human hepatoma Huh-7 cell line harboring a HCV replicon
# EXPERIMENT_DESCRIPTION: HCV replicon assay (inhibition of viral replication, luciferase readout)
# Type: cell-based
# SETUP_CONDITIONS: Hepatitis C virus, 72 h, Huh-7 HCV replicon cells, 3 days incubation
Entries and their measured inhibition at 2 µM follow.
The response must be a number in % with no trailing unit.

Worked set:
MOLECULE | inhibition at 2 µM / %
CC(C)(C)C#Cc1cc(N(C(=O)[C@H]2CC[C@H](C)CC2)[C@H]2CC[C@H](OC3CCN(C(=O)OC(C)(C)C)CC3)CC2)c(C(=O)O)s1 [Compound 222] | 97.7
CC1CCC(C(=O)N(c2cc(C#CC(C)(C)C)sc2C(=O)O)[C@H]2CC[C@H](Oc3cc(CN4CCOCC4)ccn3)CC2)CC1 (stereo partly shown) [Compound 28] | 99.7

Given item CCc1cnc(O[C@H]2CC[C@H](N(c3cc(C#CC(C)(C)C)sc3C(=O)O)C(=O)[C@H]3CC[C@H](C)CC3)CC2)nc1 [Compound 148] , the value recorded as its inhibition at 2 µM is 96.6

Given item CC1CCC(C(=O)N(c2cc(C#CC(C)(C)C)sc2C(=O)O)[C@H]2CC[C@H](Oc3ccnc4ccccc34)CC2)CC1 (stereo partly shown) [Compound 25] , the value recorded as its inhibition at 2 µM is 99.3

Given item CCc1cc(O[C@H]2CC[C@H](N(C(=O)C3CCC(C)CC3)c3cc(C#CC(C)(C)C)sc3C(=O)O)CC2)cc(CC)n1 (stereo partly shown) [Compound 26] , the value recorded as its inhibition at 2 µM is 99.8

Given item CC1CCC(C(=O)N(c2cc(C#CC(C)(C)COC3CCCCO3)sc2C(=O)O)C2CCC(Oc3ccccn3)CC2)CC1 (stereo not shown) [Compound 311] , the value recorded as its inhibition at 2 µM is 95.2

Given item CC(C)(C)C#Cc1cc(N(C(=O)[C@H]2CC[C@H](C)CC2)[C@H]2CC[C@H](OC3CCNCC3)CC2)c(C(=O)O)s1 [Compound 223] , the value recorded as its inhibition at 2 µM is 100

Given item CC(C)(C)C#Cc1cc(N(C(=O)[C@H]2CC[C@H](C)CC2)[C@H]2CC[C@H](Oc3ncccn3)CC2)c(C(=O)O)s1 [Compound 4] , the value recorded as its inhibition at 2 µM is 99.9

Given item CN(C)Cc1ccnc(O[C@H]2CC[C@H](N(c3cc(C#CC4(C(F)(F)F)CC4)sc3C(=O)O)C(=O)[C@H]3CC[C@H](C)CC3)CC2)c1 [Compound 340] , the value recorded as its inhibition at 2 µM is 100

Given item CC1CCC(C(=O)N(c2cc(C#CC(C)(C)C)sc2C(=O)O)[C@H]2CCN(CCOc3ccccn3)C2)CC1 (stereo partly shown) [Compound 321] , the value recorded as its inhibition at 2 µM is 99.9

Given item CC(C)(C)C#Cc1cc(N(C(=O)[C@H]2CC[C@H](C)CC2)[C@H]2CC[C@H](Oc3nccs3)CC2)c(C(=O)O)s1 [Compound 15] , the value recorded as its inhibition at 2 µM is 99.6

Given item CC(C)(C)C#Cc1cc(N(C(=O)[C@H]2CC[C@H](C)CC2)[C@H]2CC[C@@H](Sc3nncs3)CC2)c(C(=O)O)s1 [Compound 105] , the value recorded as its inhibition at 2 µM is 99.9

Given item CC(C)(C)C#Cc1cc(N(C(=O)[C@H]2CC[C@H](C)CC2)[C@H]2CC[C@H](Oc3cc(C(=O)N4CCC4)ccn3)CC2)c(C(=O)O)s1 [Compound 168] , the value recorded as its inhibition at 2 µM is 99.9

====

# System: human hepatoma Huh-7 cell line harboring a HCV replicon
# EXPERIMENT_DESCRIPTION: HCV replicon assay (inhibition of viral replication, luciferase readout)
# Assay type: cell-based
# SETUP_CONDITIONS: Hepatitis C virus, 72 h, Huh-7 HCV replicon cells, 3 days incubation
MEASURED_QUANTITY: inhibition at 2 µM (%)
The response must be a number in % with no trailing unit.

Given item CC1CCC(C(=O)N(c2cc(C#CC(C)(C)C)sc2C(=O)O)[C@H]2CC[C@H](Oc3cncc(CN4CCCC4)c3)CC2)CC1 (stereo partly drawn) , the value recorded as its inhibition at 2 µM is 100

====

# Tested on: human hepatoma Huh-7 cell line harboring a HCV replicon
# EXPERIMENT_DESCRIPTION: HCV replicon assay (inhibition of viral replication, luciferase readout)
# Format: cell-based
# SETUP_CONDITIONS: Hepatitis C virus, 72 h, Huh-7 HCV replicon cells, 3 days incubation
MEASURED_QUANTITY: inhibition at 2 µM (%)
The response must be a number in % with no trailing unit.

COMPOUND | EXPERIMENTAL_SYSTEM | inhibition at 2 µM, %
CC(C)(C)C#Cc1cc(N(C(=O)[C@H]2CC[C@H](C)CC2)[C@H]2CC[C@H](O[C@H]3CCN(C(=O)OC(C)(C)C)C3)CC2)c(C(=O)O)s1 | human hepatoma Huh-7 cell line harboring a HCV replicon | 98.4

Given item `CC(C)(C)C#Cc1cc(N(C(=O)[C@H]2CC[C@H](C)CC2)[C@H]2CC[C@H](Oc3ccnnc3)CC2)c(C(=O)O)s1` , the value recorded as its inhibition at 2 µM is 84.7

Given item `CC(C)(C)C#Cc1cc(N(C(=O)[C@H]2CC[C@H](C)CC2)[C@H]2CC[C@H](Oc3ncccc3C(F)(F)F)CC2)c(C(=O)O)s1` , the value recorded as its inhibition at 2 µM is 75.1

Given item `C[C@@H](CCOc1cccnc1)N(c1cc(C#CC(C)(C)C)sc1C(=O)O)C(=O)[C@H]1CC[C@H](C)CC1` , the value recorded as its inhibition at 2 µM is 99.9

Given item CC1CCC(C(=O)N(c2cc(C#CC(C)(C)C)sc2C(=O)O)[C@H]2CC[C@H](Oc3cc(CN4CCCC4=O)ccn3)CC2)CC1 (stereo partly drawn) , the value recorded as its inhibition at 2 µM is 99.9

Given item `CC(C)(C)C#Cc1cc(N(C(=O)[C@H]2CC[C@H](C)CC2)[C@H]2CC[C@H](Oc3cnc(Cl)cn3)CC2)c(C(=O)O)s1` , the value recorded as its inhibition at 2 µM is 97.8

====

# System: human hepatoma Huh-7 cell line harboring a HCV replicon
# EXPERIMENT_DESCRIPTION: HCV replicon assay (inhibition of viral replication, luciferase readout)
# Format: cell-based
# SETUP_CONDITIONS: Hepatitis C virus, 72 h, Huh-7 HCV replicon cells, 3 days incubation
MEASURED_QUANTITY: inhibition at 2 µM (%)
The response must be a number in % with no trailing unit.

COMPOUND | inhibition at 2 µM [%]
CC(C)(C)C#Cc1cc(N(C(=O)[C@H]2CC[C@H](C)CC2)C2CCN(S(=O)(=O)c3ccccn3)CC2)c(C(=O)O)s1 | 100

Given item CC1CCC(C(=O)N(c2cc(C#CC(C)(C)C)sc2C(=O)O)[C@H]2CC[C@H](Oc3ccnc(CN4CCCC4)c3)CC2)CC1 (stereo partly drawn) , the value recorded as its inhibition at 2 µM is 99.9

Given item `CC(C)(C)C#Cc1cc(N(C(=O)[C@H]2CC[C@H](C)CC2)[C@H]2CC[C@@H](Oc3cncnc3)CC2)c(C(=O)O)s1` , the value recorded as its inhibition at 2 µM is 99.5

====

Entries and their measured inhibition at 2 µM follow.
# System: human hepatoma Huh-7 cell line harboring a HCV replicon
# EXPERIMENT_DESCRIPTION: HCV replicon assay (inhibition of viral replication, luciferase readout)
# Format: cell-based
# SETUP_CONDITIONS: Hepatitis C virus, 72 h, Huh-7 HCV replicon cells, 3 days incubation
The response must be a number in % with no trailing unit.

Worked set:
COMPOUND | inhibition at 2 µM / %
CC1CCC(C(=O)N(c2cc(C#CC(C)(C)C)sc2C(=O)O)[C@H]2CC[C@H](Oc3cccc(CN4CCOCC4)n3)CC2)CC1 (stereo partly drawn) | 100
C[C@@H](CCOc1cncnc1)N(c1cc(C#CC(C)(C)C)sc1C(=O)O)C(=O)[C@H]1CC[C@H](C)CC1 | 100
CC(C)(C)C#Cc1cc(N(C(=O)[C@H]2CC[C@H](C)CC2)[C@H]2CC[C@H](O[C@@H]3CCN(C(=O)OC(C)(C)C)C3)CC2)c(C(=O)O)s1 | 98.4
CC1CCC(C(=O)N(c2cc(C#CC(C)(C)C)sc2C(=O)O)[C@H]2CC[C@H](Oc3cncc(CN4CCOCC4)c3)CC2)CC1 (stereo partly drawn) | 99.9
CC1=CC[C@@H](C(=O)N(c2cc(C#CC(C)(C)C)sc2C(=O)O)[C@H]2CC[C@H](Oc3cc(CN(C)C)ccn3)CC2)CC1 | 100

Now examine the next entry.
Given item `CC1=CC[C@@H](C(=O)N(c2cc(C#CC(C)(C)C)sc2C(=O)O)[C@H]2CC[C@H](O[C@H]3CCOC3)CC2)CC1` , the value recorded as its inhibition at 2 µM is 100
